We begin with a simple list: items and their reported pEC50.
Molecular target: hGIPR (Homo sapiens, UniProt P48546)
Construct: expressed in transfected cells; host or cells: CHO cells carrying a CRE-luciferase reporter gene
Sequence (P48546 22-466): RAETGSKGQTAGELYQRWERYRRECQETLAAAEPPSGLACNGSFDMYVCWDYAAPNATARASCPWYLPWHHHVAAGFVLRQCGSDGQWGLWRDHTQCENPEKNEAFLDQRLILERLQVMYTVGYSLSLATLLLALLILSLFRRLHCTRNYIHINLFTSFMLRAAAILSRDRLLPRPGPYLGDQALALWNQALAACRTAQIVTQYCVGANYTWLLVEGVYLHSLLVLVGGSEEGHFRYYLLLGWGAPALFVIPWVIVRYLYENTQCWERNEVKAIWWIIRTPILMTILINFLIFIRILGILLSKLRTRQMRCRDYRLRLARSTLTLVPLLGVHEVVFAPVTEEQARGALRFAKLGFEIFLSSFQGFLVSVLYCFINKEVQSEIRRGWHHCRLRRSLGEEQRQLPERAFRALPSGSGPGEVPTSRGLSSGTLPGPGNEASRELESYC
Experiment: hGIPR CreLuc reporter gene assay in 0.5% and 100% plasma
Format: cell-based
Conditions: CreLuc reporter gene assay, 100% human plasma; read-out: hGIPR 100% hP
Protocol: Example 1: hGLPR/hGIPR/hNPY2R CreLuc Assay in 0.5% and 100% Plasma CHO and HEK-293 recombinant cell lines express a luciferase reporter gene under control of the cAMP responsive element (CRE). […] Following incubation, assay plates are equilibrated to room temperature, followed by addition of 25 μl of Bright-GIo™ Luciferase reagent, incubation at room temperature for 10 minutes and analysis of luminescence (Envision Reader). […]
Starred links: 1 amine or outer side, 2 acyl side, 3 side chain; linkers in the order of their positions; H or OH if unused. Non-standard residues stand in square brackets, D forms with d. Groups on a side chain read outwards from the residue. No end group written: not given here. *: point of attachment. C20 diacid = O=C(O)CCCCCCCCCCCCCCCCCCC(=O)*; C18 diacid = O=C(O)CCCCCCCCCCCCCCCCC(=O)*; γGlu = O=C(O)[C@H](CCC(=O)[*:2])N[*:1]; εLys = N[C@@H](CCCCN[*:1])C(=O)[*:2]; AEEA = NCCOCCOCC(=O)O; Aib = CC(C)(N)C(=O)O
Units for pEC50: none; it is -log10 of a concentration expressed in mol/L.

The examples below pair each entry with its known result.
Consider Y[Aib]EGTFTSDYSI[Aib]LEKQAQ[Aib]EFVEWLIK([AEEA-AEEA-γGlu-γGlu-γGlu-C18 diacid])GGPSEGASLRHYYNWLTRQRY-NH2 [Compound 284] . Its measured pEC50 is 9.10

So for H-Y[Aib]EGTFTSDYSI[Aib]LEKQAQ[Aib]AFVEWLIK([AEEA-AEEA-γGlu-γGlu-γGlu-γGlu-C20 diacid])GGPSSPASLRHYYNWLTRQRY-NH2 [Compound 175] , the logged pEC50 turned out to be 8.82

response.value for H-Y[Aib]EGTFTSDYSI[Aib]LEKQAQ[Aib]AFVEWLIK([εLys-γGlu-γGlu-γGlu-γGlu-γGlu-γGlu-C20 diacid])GGPRSGASLRHYYNWLTRQRY-NH2 [Compound 168] (field: pEC50) = 8.82

Item: H-Y[Aib]EGTFTSDYSI[Aib]LEKQAQ[Aib]EFVEWLIK([AEEA-AEEA-γGlu-γGlu-γGlu-C18 diacid])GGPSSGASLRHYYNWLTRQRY-NH2 [Compound 171] | pEC50: 9.08

Next:
Value of pEC50 reported for the substance H-Y[Aib]EGTFTSDYSI[Aib]LEKQAQ[Aib]AFVEWLIK([εLys-γGlu-γGlu-γGlu-γGlu-γGlu-γGlu-C20 diacid])GGPSSGIELRHFLNHLTRQRY-NH2 [Compound 2] is 8.81

Quick note, pEC50 for H-Y[Aib]EGTFTSDYSI[Aib]LEKQAQ[Aib]AFVEWLIK([γGlu-γGlu-γGlu-γGlu-γGlu-γGlu-C20 diacid])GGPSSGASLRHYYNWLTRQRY-NH2 [Compound 235] landed at 8.55

Quick note, pEC50 for H-Y[Aib]EGTFTSDYSI[Aib]LEKQAQ[Aib]AFVQWLIK([AEEA-AEEA-γGlu-γGlu-γGlu-γGlu-γGlu-C18 diacid])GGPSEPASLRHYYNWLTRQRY-NH2 [Compound 142] landed at 8.94

Documented pEC50 of H-Y[Aib]EGTFTSDYSI[Aib]LEKQAQ[Aib]AFVEWLIK([εLys-γGlu-γGlu-γGlu-γGlu-γGlu-γGlu-C20 diacid])GGPSSGASVRHYYNWLTRQRY-NH2 [Compound 117] : 8.93

Measured pEC50 of H-Y[Aib]EGTFTSDYSI[Aib]LEEQAQ[Aib]AFVEWLIK([εLys-AEEA-γGlu-γGlu-γGlu-γGlu-γGlu-C20 diacid])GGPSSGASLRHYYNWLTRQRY-NH2 [Compound 110] : 8.94

pEC50 recorded for this substance, H-Y[Aib]EGTFTSDYSI[Aib]LEKQAQ[Aib]AFVQWLIK([AEEA-AEEA-γGlu-γGlu-γGlu-γGlu-C18 diacid])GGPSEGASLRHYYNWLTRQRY-NH2 [Compound 270] , is 9.15
